Value source: ChEMBL document CHEMBL4261600

measurement notes: Antiproliferative activity against Chinese hamster CHL cells after 72 hrs by Celltiter-Glo assay
test parameters: Cricetulus griseus
Would you mind telling me the reported GI50 of each entry?
Give bare numbers, in nM.

Consider the following illustrative entries.
COCCN[C@H]1CC[C@H](Nc2cc(-c3csc(NCc4ccc(F)cc4)n3)c(Cl)cn2)CC1 1100
O=C(Nc1cc(-c2csc(NCC3CCOCC3)n2)c(Cl)cn1)c1ccc(F)cc1 930
N[C@H]1CC[C@H](CNc2cc(-c3csc(NCC4CCOCC4)n3)c(Cl)cn2)CC1 3900

// for each molecule in input: emit GI50
1. N[C@H]1CC[C@H](Nc2cc(-c3csc(NCC4CCOCC4)n3)c(Cl)cn2)CC1
2. COCCN[C@H]1CC[C@H](Nc2cc(-c3csc(NCC4CCOCC4)n3)ccn2)CC1
3. COCCN[C@H]1CC[C@H](Nc2cc(-c3csc(NCC4CCC4)n3)c(Cl)cn2)CC1
4. COCCN[C@H]1CC[C@H](Nc2cc(-c3csc(NCC4(C#N)CCOCC4)n3)c(Cl)cn2)CC1
5. COCCN[C@H]1CC[C@H](Nc2cc(-c3csc(NCC4CC4)n3)c(Cl)cn2)CC1
6. COC[C@@H](C)N[C@H]1CC[C@H](Nc2cc(-c3csc(NCC4(C#N)CCOCC4)n3)c(Cl)cn2)CC1

Resp:
1: 3500; 2: 1200; 3: 1290; 4: 1200; 5: 1400; 6: 1100
